Each item that follows carries a reported pEC50.
system-tested: human GPR40 (Homo sapiens)
Sequence (O14842 whole entry): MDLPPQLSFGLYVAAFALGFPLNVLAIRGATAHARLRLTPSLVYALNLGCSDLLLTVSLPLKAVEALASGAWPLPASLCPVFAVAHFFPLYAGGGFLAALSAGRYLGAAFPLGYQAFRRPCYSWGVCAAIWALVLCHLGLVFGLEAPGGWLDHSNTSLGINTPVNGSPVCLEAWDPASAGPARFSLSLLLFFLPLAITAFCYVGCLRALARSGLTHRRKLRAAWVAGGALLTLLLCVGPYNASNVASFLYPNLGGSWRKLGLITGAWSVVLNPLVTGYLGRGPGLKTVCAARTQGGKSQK
assay-method-text: Determination of EC50 against human GPR40: change in intracellular calcium concentration by FLIPR in CHO cells stably expressing human GPR40
condition: CHO cell line stably expressing human GPR40; intracellular calcium change measured by FLIPR (Fluo3-AM); EC50 from dose-response curve; read-out: EC50 (receptor function modulating action on GPR40)
pEC50: −log10 of the molar value. Structures can show the parent of a compound that is named as a salt.

{"columns": ["molecule", "pEC50"],
 "data": [
  ["Cc1cccc(COc2cc(C(C)(C)C)nn2Cc2ccc(COc3ccc(CCC(=O)O)c(F)c3)cc2)n1 [Example 137, calcium salt]", "> 7.00"],
  ["O=C(O)CCc1ccc(OCc2cccc(N3CCOC(c4ccccc4)C3)c2)cc1 (centres unmarked)", "> 7.00"],
  ["Cc1sc(C)c(-c2cccc(COc3ccc(CCC(=O)O)cc3)c2)c1C", "> 8.00"],
  ["CC(C)(C)c1cc(COc2ccccc2)n(Cc2ccc(COc3ccc(CCC(=O)O)c(F)c3)cc2)n1 [Example 131, calcium salt]", "> 7.00"],
  ["CCOCCn1c(-c2ccccc2)c(-c2cccc(COc3ccc(CCC(=O)O)c(F)c3)c2)c2ccccc21", "> 7.00"],
  ["O=C(O)CCc1ccc(OCc2ccc(Cn3nc(-c4ccc(C(F)(F)F)cc4)cc3CCc3ccccc3)cc2)cc1", "> 6.00"],
  ["CC(C)(C)c1cc(OCc2ccccc2)n(Cc2ccc(COc3ccc(CCC(=O)O)c(F)c3)cc2)n1 [Example 133, calcium salt]", "> 7.00"],
  ["O=C(O)CCc1ccc(OCc2ccccc2-c2csc3ccccc23)cc1", "> 6.00"],
  ["CC1CCc2ccccc2N1c1cccc(COc2ccc(CCC(=O)O)cc2)c1 (centres unmarked)", "> 8.00"],
  ["CC(C)COc1ccc(COc2ccc(CCC(=O)O)cc2)cc1CN1c2ccccc2CCC1C (centres unmarked)", "> 6.00"],
  ["O=C(O)CCc1ccc(OCc2ccc(Cn3c(-c4ccccc4)cc4ccccc43)cc2)cc1", "> 7.00"],
  ["Cc1cc2ccccc2n1-c1cccc(COc2ccc(CCC(=O)O)cc2)c1", "> 8.00"],
  ["CC(C)(C)c1cc(-c2ccccc2)n(Cc2ccc(COc3ccc(CCC(=O)O)c(F)c3)cc2)n1", "> 7.00"],
  ["O=C(O)CCc1ccc(OCc2cccc(-c3ccc4c(ccn4Cc4ccccc4)c3)c2)cc1", "> 7.00"],
  ["O=C(O)CCc1ccc(OCc2ccc(Cn3ccnc3-c3ccccc3)cc2)cc1", "> 6.00"],
  ["CC(C)COc1ccc(COc2ccc(CCC(=O)O)cc2)cc1Cn1c(-c2ccccc2)cc2ccccc21", "> 7.00"],
  ["Cc1cc(-c2ccccc2)n(Cc2ccc(COc3ccc(CCC(=O)O)cc3)cc2)n1", "> 7.00"]
]}
